Biological target: T1, human IL-2Rβ (human, UniProt P14784 27-240, limits assumed)
T1 construct: recombinant protein, coated or immobilised; also called hu IL-2R; IL-2R beta
T1 sequence: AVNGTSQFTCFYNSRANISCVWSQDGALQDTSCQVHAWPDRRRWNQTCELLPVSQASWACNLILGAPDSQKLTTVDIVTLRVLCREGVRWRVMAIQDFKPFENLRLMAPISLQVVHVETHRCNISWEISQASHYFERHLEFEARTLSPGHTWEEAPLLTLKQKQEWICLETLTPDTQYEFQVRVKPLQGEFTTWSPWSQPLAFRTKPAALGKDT
Assay: SPR, P.E. off-rate
Measured koff accompanies every entry in the list below.
# output: number + unit

Some solved cases for reference:
binder | koff
FJ1427_P035MP03F10 (VHH, soluble VHH in periplasmic extract; also called 20-MP03F10; clone nr; 270) VHH: EVQLVESGGGLVQAGGSLRLSCAASGRDFSSYAMGWFRQAPGKEREFVVAITWTKRSTDFPDSVKGRFTISRDNAKNTVYLDMNSLKPEDTAVYYCASARGLPVTPLGDIIYWGEGTLVTVSS | 0.000595 s⁻¹
FJ1427_P035MP02F03 (VHH, soluble VHH in periplasmic extract; also called clone nr) VHH: EVQLVESGGGLVQAGGSLRLSCAASGGTFSSYAMGWFRQAPGKEREFVAATTRGGGRTMYAVSTEGRFTCSRDNAKNTVYLLMNSLKPEDTAVYYCAAMTSYYSGTYYPDSSDFDIWGQGTQVTVSS | 0.000828 s⁻¹
FJ1427_P035MP02B05 (VHH, soluble VHH in periplasmic extract; also called clone nr; 130) VHH: EVQLVESGGGLVQTGGSLRLSCAASGSQFINDVMGWYRQVPGKQRELVADMDDTGSTKYADSVKGRFTILRDSVKNTAYLQMSNLKPEDTGVYYCKAGLWIKGRHFDYWGQGTQVTVSS | 0.000292 s⁻¹

Requested read-out: koff. Entry: FJ1427 P035MP02C05 (VHH, soluble VHH in periplasmic extract; also called clone nr) VHH: QVQLVESGGGLVQTGGSLRLSCAVSGSRFISDVMGWYRQVPGKQRELVADMADGGSAKYADSVKGRFSILRDSVKNTVYLQMSSLKPEDTGIYYCKAGLWIAGRHSDYWGQGTQVTVSS
0.000346 s⁻¹
